target.or.system: Mitochondrial F1F0 ATP synthase (Rattus norvegicus)
test.name: Inhibitory concentration towards rat mitochondrial F1F0 ATP hydrolase using a pyruvate kinase / lactate dehydrogenase system
property.name: pIC50
Give bare numbers, as −log10 of the molar value.

Here is how some molecules turned out for pIC50.
CC1(C)Oc2ccc(C#N)cc2[C@H](N(Cc2ncc[nH]2)c2ccc(Cl)cc2)[C@H]1O; 6.32
CC1(C)Oc2ccc(C#N)cc2[C@@H](N(Cc2ncc[nH]2)c2ccccc2)[C@@H]1O; 5.38
CC1(C)Oc2ccc(C#N)cc2[C@@H](N(Cc2ncc[nH]2)c2ccc(Cl)cc2)[C@@H]1O; 6.62
CC1(C)Oc2ccc(C#N)cc2C(N(Cc2ncc[nH]2)c2ccc(Cl)cc2)C1O (racemic); 3.33
CC1(C)Oc2ccc(C#N)cc2[C@H](N(Cc2ncc[nH]2)c2ccccc2)[C@H]1O; 5.70

Note: attention shifts to another entry.
Qu. Tell me measured pIC50 for CC1(C)Oc2ccc(C#N)cc2C(Nc2ccc(Cl)cc2)C1O (racemic) please.
Ans. 4.35

These measurements were taken from ChEMBL document CHEMBL1148474.
